Assay: Binding affinity to sigma-2 opioid receptor (unknown origin)
Parameters: species or system Homo sapiens
Below, each entry is listed alongside its reported pKi.
// scale note: pKi = -log10(conc_M); give the bare number

Would you mind telling me what pKi value was observed for COc1cc2c(cc1OC)CN(CCNC(=O)c1cc(Br)ccc1OC)CC2 ?
7.91

Would you mind telling me what pKi value was observed for CN1CC[C@@]2(c3cccc(O)c3)CC(=O)/C(=C/c3cccc(O)c3)[C@@H]1C2 ?
6.82

Would you mind telling me what pKi value was observed for COc1cc(Br)cc(C(=O)NCCCCN2CCN(c3cccc(Cl)c3Cl)CC2)c1OC ?
7.12

Would you mind telling me what pKi value was observed for O=S(=O)(c1ccccc1)n1cc(CCCCN2CCC3(CC2)OCc2ccccc23)c2ccccc21 ?
9.77

---
Would you mind telling me what pKi value was observed for COc1cc2c(cc1OC)CN(CCNC(=O)c1cc(C)ccc1OC)CC2 ?
7.88

Would you mind telling me what pKi value was observed for CN1CC[C@@]2(c3cccc(O)c3)CC(=O)/C(=C/c3ccc(Cl)c(Cl)c3)[C@@H]1C2 ?
7.45

Would you mind telling me what pKi value was observed for COc1cc2c(cc1OC)CN(CCCCNC(=O)c1cc(Br)cc(OC)c1OC)CC2 ?
8.09

Would you mind telling me what pKi value was observed for COc1ccc(C(=O)NCCCCN2CCc3ccc([N+](=O)[O-])cc3C2)c(OC)c1OC ?
7.57
